system: monolayer cultured SKOV3ip1 ovarian cancer cells; test: crystal violet cell viability, 2D monolayer culture; format: cell-based; conditions: monolayer cultured SKOV3ip1, 72 hours, different concentrations, crystal violet colorimeter (FIG. 3)
measureName: cell viability

molecule	measureName	reading
CCN1CCN(c2ccc(Nc3cc(N(C)C(=O)Nc4c(Cl)c(OC)cc(OC)c4Cl)ncn3)cc2)CC1 [BGJ398]	cell viability	not effected
Cc1ccc(NC(=O)c2ccc(CN3CCN(C)CC3)cc2)cc1Nc1nccc(-c2cccnc2)n1 [imatinib]	cell viability	not effected
